test system: KP-4 (Pancreatic Carcinoma); assay: combination Emax (second highest fraction inhibited in the dose matrix, 72 h); higher = more inhibition; extreme values may be limits of the assay

{"compound": "C=CCn1c(=O)c2cnc(Nc3ccc(N4CCN(C)CC4)cc3)nc2n1-c1cccc(C(C)(C)O)n1 [AZD1775] + O=C(c1cc(Cc2n[nH]c(=O)c3ccccc23)ccc1F)N1CCN(C(=O)C2CC2)CC1 [Olaparib] (first compound max 1 µM, partner max 10 µM)", "combination Emax": 0.721}
{"compound": "CN(CCO)CC[C@H](CSc1ccccc1)Nc1ccc(S(=O)(=O)NC(=O)c2ccc(N3CCC([C@@H](O)c4ccccc4-c4ccc(Cl)cc4)CC3)cc2)cc1S(=O)(=O)C(F)(F)F [AZD4320] + Cn1cnc2c(F)c(Nc3ccc(Br)cc3Cl)c(C(=O)NOCCO)cc21 [Selumetinib] (first compound max 1 µM, 7x7, partner max 3 µM)", "combination Emax": 0.254}
{"compound": "Cc1cc2ncnn2cc1Nc1ncc2c(n1)n(C1CCOCC1)c(=O)n2C [AZD7648] + COc1cc([C@@H]2c3cc4c(cc3[C@@H](O[C@@H]3O[C@@H]5CO[C@@H](C)O[C@H]5[C@H](O)[C@H]3O)[C@H]3COC(=O)[C@H]23)OCO4)cc(OC)c1O [Etoposide] (first compound max 10 µM, 7x7, partner max 10 µM)", "combination Emax": 0.878}
